- tested-on: MAP2K4 (MEK4) (Homo sapiens)
- Sequence (P45985 1-399): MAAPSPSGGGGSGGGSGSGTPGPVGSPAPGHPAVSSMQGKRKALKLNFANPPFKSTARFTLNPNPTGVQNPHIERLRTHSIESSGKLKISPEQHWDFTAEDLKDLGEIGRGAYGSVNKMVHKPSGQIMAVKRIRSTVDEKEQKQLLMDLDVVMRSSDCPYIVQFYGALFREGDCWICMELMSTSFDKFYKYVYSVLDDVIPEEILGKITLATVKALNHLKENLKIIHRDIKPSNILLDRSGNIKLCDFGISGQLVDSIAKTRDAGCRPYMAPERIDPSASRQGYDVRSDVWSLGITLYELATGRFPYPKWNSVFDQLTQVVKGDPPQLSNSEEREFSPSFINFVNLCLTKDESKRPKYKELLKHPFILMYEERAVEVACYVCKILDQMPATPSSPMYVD
assay-metric: IC50
The reply should consist of the numeric value with the unit placed after it.

C[C@@H]1CCC(c2cc3c4c(cncc4c2)[C@H](C)C3)=C1C=O [323-1, (15R,2R)-Delavatine A] : 2010 nM

Query: Form field: reported IC50 of C[C@@H]1CCC(c2cc3c4c(cncc4c2)[C@@H](C)C3)=C1C=O [323-2, (15S,2R)-Delavatine A]
Result: 1220 nM
